test: in vivo; set-up: species or system rats; settings: Wistar, rat, iv
readoutName: concentration at 5 min

Q: Recorded concentration at 5 min of CO/N=C(\C(=O)N[C@@H]1C(=O)N2C(C(=O)[O-])=C(C[n+]3cccc4c3CCC4)CS[C@H]12)c1csc(N)n1 , please.
Result: 161 µg/mL

Measured values drawn from patent US7005416B2 for this set.
